Source listed as patent US5324747A.

- Tested on: adjuvant arthritis model in rats
- Protocol description: Established Adjuvant Arthritis Test
- Format: in vivo
- Condition notes: 10 mg/kg ip
- Experimental: Established Adjuvant Arthritis Test Representative compounds of the invention were tested in the standard adjuvant arthritis model in rats, induced by Freunds complete adjuvant, as described by C. E. Brinckerhoff, J. W. Coffey and A. C. Sullivan, Science, 221, p. 756-758 (1983).
Readout kind: Change in Paw Volume (mL) Treated
Numbers only, in mL.

Illustrative cases are given below, each with its answer.
# Compound, Study system, Readout kind, Recorded number
data = [
    ("CCCCCCCCCCCCCCCCCCOc1cc(OCCCCC(=O)OC)cc(N(CC(=O)O)CC(=O)O)c1 [Example 64]", "adjuvant arthritis model in rats", "Change in Paw Volume (mL) Treated", 0.65),
    ("CCCCCCCCCCCCCCCCCCOc1cc(OCCCOc2cccc(N)c2)cc(N(CC(=O)O)CC(=O)O)c1 [Example 58n]", "adjuvant arthritis model in rats", "Change in Paw Volume (mL) Treated", 0.23),
]

Provide Change in Paw Volume (mL) Treated values for the following items, in order.
1. CCCCCCCCCCCCCCCCCCOc1cc(OCCOCCOCCOCC)cc(N(CC(=O)O)CC(=O)O)c1 [Example 151]
2. CCCCCCCCCCCCCCCCCCOc1cc(OCCCOc2cccc([N+](=O)[O-])c2)cc(N(CC(=O)O)CC(=O)O)c1 [Example 58m]
3. CCCCCCCCCCCCCCCCCCOc1cc(C(=O)O)cc(N(CC(=O)O)CC(=O)O)c1 [Example 70]
4. CCCCCCCCCCCCCCCCCCOc1cc(OCCCOc2ccccc2)cc(N(CC(=O)O)CC(=O)O)c1 [Example 58]

Marked response:
0.28
0.40
0.30
0.37

----------
- Study system: HSF-PLA2 (Homo sapiens, UniProt P14555)
- Construct: extracellular enzyme obtained from human synovial fluid (HSF-PLA2)
- Sequence (P14555 21-144): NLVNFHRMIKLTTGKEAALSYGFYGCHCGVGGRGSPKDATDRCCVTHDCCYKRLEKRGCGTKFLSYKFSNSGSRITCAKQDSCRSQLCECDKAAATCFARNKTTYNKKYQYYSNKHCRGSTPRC
- Protocol description: Assay for Inhibition of HSF-PLA2 In Vitro
- Condition notes: read-out: Inhib of HSF-PLA2 IC50
Response field label: string, one of rule met (IC50 strictly below 400 nM) or rule not met.

# Compound, Assigned class
rows = [
    ("CCCCCCCCCCCCCCCCCCOc1cc(OCCCCC(=O)OC)cc(N(CC(=O)O)CC(=O)O)c1", "rule met"),
]

Exam item: Take the compound CCCCCCCCCCCCCCCCCCOc1cc(OCCCCC(=O)O)cc(N(CC(=O)O)CC(=O)O)c1 and say whether its IC50 is less than 400 nM.
Marked response: rule not met

Exam item: # strict comparison: is reported IC50 < 400 nM? input = CCCCCCCCCCCCCCCCCCOc1cc(OCCCCCc2cccc(O)c2O)cc(N(CC(=O)O)CC(=O)O)c1
Marked response: rule met

----------
- Study system: HSF-PLA2 (Homo sapiens)
- Construct: extracellular enzyme obtained from human synovial fluid (HSF-PLA2); from tissue; host or cells: pooled human synovial fluid, added at 0.1% (v/v)
- Protocol description: Assay for Inhibition of HSF-PLA2 In Vitro
- Assay type: biochemical
- Condition notes: (10 μM); read-out: Inhib of HSF-PLA2, % inhibition
Readout kind: inhibition at 10 µM (%)
Give bare numbers, in %.

# Compound, inhibition at 10 µM (%)
data = [
    ("O=C(O)CCCCCCCCCCOc1cc(OCCCCCCCCCCC(=O)O)cc(N(CC(=O)O)CC(=O)O)c1 [Example 6k]", 35),
]

Quick request: inhibition at 10 µM for each listed item, please.
1. CCCCCCCCCCCCCCCCCCOc1cccc(NCC(=O)O)c1 [Example 125, N-[3-(Octadecyloxy)phenyl]glycine]
2. CCCCCCCCCCCCCCCCCCCc1cc(CCCCCCCCCCCCCCCCCCC)cc(N(CC(=O)O)CC(=O)O)c1 [Example 6t]
3. CCCCCCCCCCNC(=O)c1cccc(N(CC(=O)O)CC(=O)O)c1 [Example 36d]

Marked response:
55
39
46
